Target: HCV-1 E1E2 (autologous strain) (Hepatitis C virus genotype 1a, strain …, UniProt P26664, strain)
Assay: ELISA
property_measured: binding result

>>> experimental_value("RM2-01 heavy-chain variant P52aA (antibody, V domains shown) VH: QVQLVQSGAEVKKPGASVKLSCKASGFTFRIYAISWVRQAPGQGLEWMGEIVALGGITNYAQNFQGRAAITADTSINTAYMELSSLRSDDTAVYYCARVRTALVGPREGIFDFWGQGVLVTVSS VL: DIQMTQSPSSLSASVGDRVSITCRASQTISTYLAWYQQKPGKVPKLLIYTASTLETGVPSRFSGSGSGTEFTLTISSLQPEDFATYYCQQHDSHPYSFGQGTKVEIK")
"binds"
>>> experimental_value("RM11-43 heavy-chain variant I56A (antibody, V domains shown) VH: QVQLVQSGAEVKKPGASVKLSCKASGFTFRIYAISWVRQAPGQGLEWMGEIIPLGGATNYAQKFQGRVTITADTSTSTAYMELSSLRSEDTAVYYCARGETKMITVLAGTTGGGLDSWGQGTLVTVSS VL: DIQMTQSPSSLSASVGDKVTITCHASQGISSWLAWYQQKPGKAPKPLIYAASSLQSGVPSRFSGGGSGADYTLTISSLQPEDFATYYCQQYDDLPRTFGQGTKVEIK")
"binds"
>>> experimental_value("RM2-01 heavy-chain variant I56A (antibody, V domains shown) VH: QVQLVQSGAEVKKPGASVKLSCKASGFTFRIYAISWVRQAPGQGLEWMGEIVPLGGATNYAQNFQGRAAITADTSINTAYMELSSLRSDDTAVYYCARVRTALVGPREGIFDFWGQGVLVTVSS VL: DIQMTQSPSSLSASVGDRVSITCRASQTISTYLAWYQQKPGKVPKLLIYTASTLETGVPSRFSGSGSGTEFTLTISSLQPEDFATYYCQQHDSHPYSFGQGTKVEIK")
"binds"

Reference source for all entries: paper PMC8046733
